system: OCT2 (Homo sapiens, UniProt O15244)
Sequence (O15244 whole entry): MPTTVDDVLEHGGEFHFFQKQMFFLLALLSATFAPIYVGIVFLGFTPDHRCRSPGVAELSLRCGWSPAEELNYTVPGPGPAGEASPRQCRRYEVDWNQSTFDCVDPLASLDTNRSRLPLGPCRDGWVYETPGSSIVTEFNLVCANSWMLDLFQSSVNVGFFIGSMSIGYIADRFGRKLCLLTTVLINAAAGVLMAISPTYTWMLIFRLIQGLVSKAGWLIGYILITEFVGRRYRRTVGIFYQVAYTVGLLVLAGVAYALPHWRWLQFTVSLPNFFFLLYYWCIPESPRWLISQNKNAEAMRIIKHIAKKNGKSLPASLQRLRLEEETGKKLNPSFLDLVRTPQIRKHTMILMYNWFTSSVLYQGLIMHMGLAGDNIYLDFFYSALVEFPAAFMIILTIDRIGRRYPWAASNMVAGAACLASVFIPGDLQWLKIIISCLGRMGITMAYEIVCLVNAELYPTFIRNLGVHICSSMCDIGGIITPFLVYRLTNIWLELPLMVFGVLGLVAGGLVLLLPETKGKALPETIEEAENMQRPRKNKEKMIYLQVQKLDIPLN
test-name: Inhibition of model substrate uptake in OCT2-overexpressing HEK293 cells
settings: human, OCT2-overexpressing HEK293 cells, pH 7.4

{"columns": ["compound", "system", "selectivity ratio at 5 min"],
 "data": [
  ["CC(C)(C)NC[C@@H](O)COc1nsnc1N1CCOCC1 [(R)-Timolol]", "OCT2 (Homo sapiens, UniProt O15244)", 2],
  ["CC(C)(C)NC[C@H](O)COc1nsnc1N1CCOCC1 [Timolol]", "OCT2 (Homo sapiens, UniProt O15244)", 2],
  ["CCCN[C@H]1CCc2nc(N)sc2C1 [Pramipexole]", "OCT2 (Homo sapiens, UniProt O15244)", 4],
  ["CCN(CC)CC#CCOC(=O)[C@](O)(c1ccccc1)C1CCCCC1 [(R)-Oxybutynine]", "OCT2 (Homo sapiens, UniProt O15244)", 1.6],
  ["CCCN[C@H]1CCc2nc(N)sc2C1 [(S)-Pramipexole]", "OCT2 (Homo sapiens, UniProt O15244)", 4],
  ["CCCCN1CCCCC1C(=O)Nc1c(C)cccc1C (stereo not shown) [Bupivacaine]", "OCT2 (Homo sapiens, UniProt O15244)", 2.3],
  ["OC[C@H](O)CN1CCN(c2ccccc2)CC1 [(R)-Dropropizine]", "OCT2 (Homo sapiens, UniProt O15244)", 1.4],
  ["CCCCN1CCCC[C@H]1C(=O)Nc1c(C)cccc1C [(S)-Bupivacaine]", "OCT2 (Homo sapiens, UniProt O15244)", 2.3],
  ["CCN1CCC[C@H]1CNC(=O)c1cc(S(=O)(=O)CC)c(N)cc1OC [(S)-Amisulpride]", "OCT2 (Homo sapiens, UniProt O15244)", 3.2],
  ["O=C1c2cccc3c2[C@H](CCC3)CN1[C@@H]1CN2CCC1CC2 [Palonosetron]", "OCT2 (Homo sapiens, UniProt O15244)", 3.2]
]}

====

system: OCT1 (Homo sapiens)
test-name: Inhibition of model substrate uptake in OCT1-overexpressing HEK293 cells
Type: cell-based
Design: expressed in transfected cells; host or cells: HEK293
settings: human, pH 7.4
Criterion: Sumatriptan inhibition [%] meeting or surpassing 70%. Met: 1 (yes). Not met: 0 (no).

{"columns": ["compound", "assigned-class"],
 "data": [
  ["COc1ccc([C@@H](CN(C)C)C2(O)CCCCC2)cc1 [(S)-Venlafaxine]", "0 (no)"],
  ["C#CCN(C)[C@H](C)Cc1ccccc1 [(R)-Deprenyl]", "0 (no)"],
  ["CCN[C@@H](C)Cc1cccc(C(F)(F)F)c1 [(S)-Fenfluramine]", "1 (yes)"],
  ["CC(C)C[C@@H](N(C)C)C1(c2ccc(Cl)cc2)CCC1 [(R)-Sibutramine]", "1 (yes)"]
]}

====

system: OCT2 (Homo sapiens)
test-name: in vitro
settings: human, pH 7.4
measurement-label: selectivity ratio

{"columns": ["molecule", "measurement-label", "assay-result"],
 "data": [
  ["C#CCN(C)[C@@H](C)Cc1ccccc1 [(S)-Deprenyl]", "selectivity ratio", 1.4]
]}

====

system: OCT1 (Homo sapiens, UniProt O15245)
Sequence (O15245 1-554): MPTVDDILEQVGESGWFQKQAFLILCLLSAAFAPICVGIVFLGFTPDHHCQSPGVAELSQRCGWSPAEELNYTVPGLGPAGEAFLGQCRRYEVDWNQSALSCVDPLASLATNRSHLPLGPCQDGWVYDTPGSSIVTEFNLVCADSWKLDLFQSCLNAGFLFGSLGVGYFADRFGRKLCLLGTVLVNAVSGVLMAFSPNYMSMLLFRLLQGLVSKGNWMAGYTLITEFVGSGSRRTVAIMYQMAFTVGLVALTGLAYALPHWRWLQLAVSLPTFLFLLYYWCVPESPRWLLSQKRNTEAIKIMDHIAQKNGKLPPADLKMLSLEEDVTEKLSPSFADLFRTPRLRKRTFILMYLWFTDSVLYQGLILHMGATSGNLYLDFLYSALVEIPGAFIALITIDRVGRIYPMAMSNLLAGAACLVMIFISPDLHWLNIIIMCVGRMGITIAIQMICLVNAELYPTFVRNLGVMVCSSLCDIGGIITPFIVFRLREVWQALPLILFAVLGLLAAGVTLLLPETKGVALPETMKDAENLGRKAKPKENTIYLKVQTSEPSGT
test-name: Inhibition of model substrate uptake in OCT1-overexpressing HEK293 cells
Format: cell-based
Set-up: expressed in transfected cells; host or cells: HEK293
settings: human, pH 7.4, OCT1; 20 μM inhibitor, 2 μM ASP+, 5 min; mean of three experiments; read-out: ASP+ inhibition [%]

{"columns": ["molecule", "inhibition at 5 min, 20 μM / %"],
 "data": [
  ["O=C(OC1C[N+]2(CCCOc3ccccc3)CCC1CC2)C(O)(c1cccs1)c1cccs1 [(R)-Aclidinium]", 71.6]
]}
